tested on: NCI-H460; assay: relative viability (nuclei count vs DMSO), 5 days (fraction); higher = more cells survive; settings: first compound 0.03162 µM
Assign labels as follows, please: criterion met for relative viability below 0.4; criterion not met for relative viability equal to or exceeding 0.4.

Cc1cn(-c2cc(NC(=O)c3ccc(C)c(Nc4nccc(-c5cccnc5)n4)c3)cc(C(F)(F)F)c2)cn1 [Nilotinib] + CC(=O)c1c(C)c2cnc(Nc3ccc(N4CCNCC4)cn3)nc2n(C2CCCC2)c1=O [Palbociclib] (partner 0.5 µM) | criterion met
Cc1cn(-c2cc(NC(=O)c3ccc(C)c(Nc4nccc(-c5cccnc5)n4)c3)cc(C(F)(F)F)c2)cn1 [Nilotinib] + NC(=O)Nc1cc(-c2cccc(F)c2)sc1C(=O)N[C@H]1CCCNC1 [AZD7762] (partner 0.2 µM) | criterion not met
Cc1cn(-c2cc(NC(=O)c3ccc(C)c(Nc4nccc(-c5cccnc5)n4)c3)cc(C(F)(F)F)c2)cn1 [Nilotinib] + Cc1cc(Nc2cc(N3CCN(C)CC3)nc(Sc3ccc(NC(=O)C4CC4)cc3)n2)n[nH]1 [Tozasertib] (partner 0.1 µM) | criterion met
Cc1cn(-c2cc(NC(=O)c3ccc(C)c(Nc4nccc(-c5cccnc5)n4)c3)cc(C(F)(F)F)c2)cn1 [Nilotinib] + Cc1nc(Nc2ncc(C(=O)Nc3c(C)cccc3Cl)s2)cc(N2CCN(CCO)CC2)n1 [Dasatinib] (partner 0.075 µM) | criterion not met
Cc1cn(-c2cc(NC(=O)c3ccc(C)c(Nc4nccc(-c5cccnc5)n4)c3)cc(C(F)(F)F)c2)cn1 [Nilotinib] + COc1cccc2cc(-c3nc([C@H]4CC[C@H](C(=O)O)CC4)n4ncnc(N)c34)[nH]c12 [OSI-027] (partner 0.5 µM) | criterion met

Query string: Dear reviewer, please state whether Cc1cn(-c2cc(NC(=O)c3ccc(C)c(Nc4nccc(-c5cccnc5)n4)c3)cc(C(F)(F)F)c2)cn1 [Nilotinib] + COc1cc2c(Oc3ccc(NC(=O)C4(C(=O)Nc5ccc(F)cc5)CC4)cc3F)ccnc2cc1OCCCN1CCOCC1 [Foretinib] (partner 0.25 µM) has relative viability strictly beneath 0.4.
Result string: criterion not met

###

Entries and their relative viability values follow.
test system: EKVX; assay: relative viability (nuclei count vs DMSO), 5 days (fraction); higher = more cells survive; settings: first compound 2 µM
Enter a number only.

CN1CCN(CCOc2cc(OC3CCOCC3)c3c(Nc4c(Cl)ccc5c4OCO5)ncnc3c2)CC1 [Saracatinib] + CCNC(=O)c1noc(-c2cc(C(C)C)c(O)cc2O)c1-c1ccc(CN2CCOCC2)cc1 [Luminespib] (partner 0.01 µM) | 0.532
Cc1csc(=NC2CCCCC2)n1/N=C/c1ccc(O)c(O)c1O [MIM1] + Cc1cc(Nc2cc(N3CCN(C)CC3)nc(Sc3ccc(NC(=O)C4CC4)cc3)n2)n[nH]1 [Tozasertib] (partner 0.1 µM) | 0.355
CN1CCN(CCOc2cc(OC3CCOCC3)c3c(Nc4c(Cl)ccc5c4OCO5)ncnc3c2)CC1 [Saracatinib] + COc1cccc2cc(-c3nc([C@H]4CC[C@H](C(=O)O)CC4)n4ncnc(N)c34)[nH]c12 [OSI-027] (partner 0.5 µM) | 0.456

Query string: Quick one: relative viability for Cc1csc(=NC2CCCCC2)n1/N=C/c1ccc(O)c(O)c1O [MIM1] + CS(=O)(=O)N1CCN(Cc2cc3nc(-c4cccc5[nH]ncc45)nc(N4CCOCC4)c3s2)CC1 [Pictilisib] (partner 1 µM) ?
Result string: 0.463
